- SYSTEM NAME: human PCSK9 (proprotein convertase subtilisin kexin type 9) (human, UniProt Q8NBP7 31-692)
- Sequence (Q8NBP7 31-692 limits assumed): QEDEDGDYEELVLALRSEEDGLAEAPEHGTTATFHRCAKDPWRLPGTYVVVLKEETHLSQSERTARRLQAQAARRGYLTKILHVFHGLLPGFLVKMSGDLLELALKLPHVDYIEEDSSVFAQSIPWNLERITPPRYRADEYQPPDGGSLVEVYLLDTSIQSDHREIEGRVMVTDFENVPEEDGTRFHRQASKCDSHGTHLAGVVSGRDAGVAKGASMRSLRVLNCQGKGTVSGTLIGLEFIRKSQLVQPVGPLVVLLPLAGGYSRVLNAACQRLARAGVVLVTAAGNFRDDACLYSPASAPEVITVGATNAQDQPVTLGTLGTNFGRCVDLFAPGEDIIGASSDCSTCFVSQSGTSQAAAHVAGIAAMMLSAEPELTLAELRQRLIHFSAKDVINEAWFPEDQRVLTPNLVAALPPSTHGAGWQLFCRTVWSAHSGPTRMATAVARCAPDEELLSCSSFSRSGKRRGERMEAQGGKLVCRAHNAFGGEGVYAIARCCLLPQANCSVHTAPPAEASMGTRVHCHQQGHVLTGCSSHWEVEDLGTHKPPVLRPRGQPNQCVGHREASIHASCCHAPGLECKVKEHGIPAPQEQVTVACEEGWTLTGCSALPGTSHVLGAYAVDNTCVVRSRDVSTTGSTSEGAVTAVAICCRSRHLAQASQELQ
- TEST SUMMARY: cell-based or functional assay
METRIC NAME: LDLR Depletion (% inhibition at 75 nM) (%)
Use % as the unit, but write only the number.

Solved cases (3 shown):
BINDER	LDLR Depletion (% inhibition at 75 nM) (%)
2971E02 (designed binder) MGVSDVPRDLEVVAATPTSLLISWDAPSDDYGYYRITYGETGGNSPVQEFTVPIGKGTATISGLKPGVDYTITVYAVEFPWPHAGYYHRPISINYRTEIDKPSQHHHHHH	126
2382C05 (designed binder) MGVSDVPRDLEVVAATPTSLLISWDAPADGAYGYYRITYGETGGNSPVQEFTVPVSKGTATISGLKPGVDYTITVYAVEYSFPGAGYYHRPISINYRTEIDKPSQHHHHHH	105
2381H09 (designed binder) MGVSDVPRDLEVVAATPTSLLISWDAPAGGGYGYYRITYGETGGNSPVQEFTVPVSKGTATISGLKPGVDYTITVYAVEFDFVGAGYYHRPISINYRTEIDKPSQHHHHHH	94.4

Now for a further binder.
Give the measured LDLR Depletion (% inhibition at 75 nM) for 2381H06 (designed binder) MGVSDVPRDLEVVAATPTSLLISWGDVRTNEARQGYYRITYGETGGNSPLQGFTVPGSKGTATISGLKPGVDYTITVYAVEYTYEHSGYYHRPISINYRTEIDKPSQHHHHHH
53.4
